tested on: SVWI38 transformed cell line; assay: MTT assay for cell viability, IC50 determination; format: cell-based; conditions: SVWI38; compound in salt form
Reported values of pIC50 for individual entries
Just the number, please; pIC50 means minus log10 of the concentration in mol/L.

Sample records with pIC50:
1. Cc1csc2nc(CNCc3cc4cc5c(cc4n(CC4CCCCC4)c3=O)CCC5)cn12 | 4.48
2. Cc1ccc(OC[C@@H](O)CNCc2ccc3c(c2)OCO3)cc1C | 4.38
3. CC(C)Cc1ccc(CNCc2cccnc2N2CCCN(C)CC2)s1 | 4.50

Find the recorded pIC50 belonging to Cc1csc2nc(CNCc3cc4cc5c(cc4n(CCN4CCCCC4)c3=O)CCC5)cn12 and report it.
4.39

Find the recorded pIC50 belonging to Cc1cccc(N[C@@H](c2ccc(N(C)C)cc2)c2ccc3ccc(C)nc3c2O)n1 and report it.
4.82
